# Tgt: human FSH receptor (Homo sapiens)
# Construct: host or cells: CHO-K1 (CHO FSH-R 6CRE-Luc, 1D7 cells)
# Sequence (P23945 18-695): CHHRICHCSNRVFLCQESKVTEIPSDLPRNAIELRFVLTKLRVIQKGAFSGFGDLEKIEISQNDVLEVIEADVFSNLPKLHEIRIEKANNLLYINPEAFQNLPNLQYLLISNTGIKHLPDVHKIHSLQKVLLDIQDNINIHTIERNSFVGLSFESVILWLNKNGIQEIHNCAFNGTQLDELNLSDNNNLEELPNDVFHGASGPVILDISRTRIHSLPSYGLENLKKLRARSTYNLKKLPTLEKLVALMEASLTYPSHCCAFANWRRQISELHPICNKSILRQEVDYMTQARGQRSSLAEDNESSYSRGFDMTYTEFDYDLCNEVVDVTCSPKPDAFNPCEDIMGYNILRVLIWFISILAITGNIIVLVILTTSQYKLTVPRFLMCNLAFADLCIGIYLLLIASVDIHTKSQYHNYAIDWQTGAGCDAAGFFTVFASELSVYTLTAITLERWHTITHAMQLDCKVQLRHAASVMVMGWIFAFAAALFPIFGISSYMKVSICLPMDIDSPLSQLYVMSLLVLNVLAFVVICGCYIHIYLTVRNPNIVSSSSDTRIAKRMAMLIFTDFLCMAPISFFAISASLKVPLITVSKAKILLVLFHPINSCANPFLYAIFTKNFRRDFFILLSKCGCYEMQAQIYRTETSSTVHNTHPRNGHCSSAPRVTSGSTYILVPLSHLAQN
# Assay Notes: FSH receptor-dependent CRE-luciferase reporter gene assay (CHO FSH-R 6CRE-Luc cells)
# Format: cell-based
# Test Parameters: dose-response format in presence of EC50 of purified human FSH; * n=3, ** n=2 averages
Assay Endpoint: IC50 (µM)

CCNC(=O)Cc1ccccc1-c1ccc(C(=O)N2Cc3ccc(C(=O)NCc4cccnc4)n3Cc3ccccc32)cc1	3.67
CNC(=O)Cc1ccccc1-c1ccc(C(=O)N2Cc3ccc(C(=O)NCc4cccnc4)n3Cc3ccccc32)cc1	0.414
Cc1cc(C(=O)N2Cc3ccc(C(=O)NCc4cccnc4)n3Cc3ccccc32)ccc1I	10.5

P = COCc1ccccc1-c1ccc(C(=O)N2Cc3ccc(C(=O)NCc4cccnc4)n3Cc3ccccc32)cc1
Q = O=C(NCc1cccnc1)c1ccc2n1Cc1ccccc1N(C(=O)c1ccc(-c3ccccn3)cc1)C2
R = COc1ccccc1-c1ccc(C(=O)N2Cc3ccc(C(=O)NCC(c4cccnc4)N4CCCC4)n3Cc3ccccc32)cc1 (stereo not drawn)
S = O=C(NCc1cccnc1)c1ccc2n1Cc1ccccc1N(C(=O)c1ccc(-c3ccccc3/C=N/O)cc1)C2
T = Cc1cc(C(=O)N2Cc3ccc(C(=O)NCc4cccnc4)n3Cc3ccccc32)ccc1-c1ccc(Cl)cc1
Asked: Rank ascending by IC50. Put the labels in the requested order and list them out.
Given back: P, S, Q, T, R
